Where do the numbers come from? From ChEMBL document CHEMBL2401735.

For each entry below, report its MIC value.
- Test system: Proteus mirabilis
- Test: Antibacterial activity against Proteus mirabilis assessed as growth inhibition after 18 to 22 hrs by broth microdilution method
- Assay type: functional

Incoming: Which MIC value is on record for `CCCCC/C(C)=N/Nc1nc(-c2ccc(C)cc2)cs1` ?
Outgoing: > 256 µg/mL

Incoming: // same read-out, input: `CC/C(C)=N/Nc1nc(-c2ccc(OC)cc2OC)cs1`
Outgoing: > 256 µg/mL

Incoming: // same read-out, input: `CCC(CC)=NNc1nc(-c2ccc(Cl)cc2Cl)cs1`
Outgoing: > 256 µg/mL

Incoming: // same read-out, input: `CCCC/C(CC)=N/Nc1nc(-c2ccc(OC)cc2OC)cs1`
Outgoing: > 256 µg/mL

Incoming: // same read-out, input: `C=CCC/C(C)=N/Nc1nc(-c2ccc(Cl)cc2Cl)cs1`
Outgoing: > 256 µg/mL

Incoming: // same read-out, input: `CC(C)(O/N=C(\C(=O)N[C@@H]1C(=O)N2C(C(=O)[O-])=C(C[n+]3ccccc3)CS[C@H]12)c1csc(N)n1)C(=O)O`
Outgoing: 8 µg/mL

Incoming: // same read-out, input: `COc1ccc(-c2csc(NN=C(C)C)n2)c(OC)c1`
Outgoing: > 256 µg/mL

Incoming: // same read-out, input: `COc1ccc(-c2csc(NN=C3CCCCCCC3)n2)cc1`
Outgoing: > 256 µg/mL

Incoming: // same read-out, input: `CCCCC/C(C)=N/Nc1nc(-c2ccc(Cl)cc2Cl)cs1`
Outgoing: > 256 µg/mL

Incoming: // same read-out, input: `COc1ccc(-c2csc(N/N=C(\C)CC(C)C)n2)cc1`
Outgoing: > 256 µg/mL

Incoming: // same read-out, input: `C=CCC/C(C)=N/Nc1nc(-c2ccc(OC)cc2OC)cs1`
Outgoing: > 256 µg/mL

Incoming: // same read-out, input: `CCCC/C(CC)=N/Nc1nc(-c2ccc(Cl)cc2Cl)cs1`
Outgoing: > 256 µg/mL

Incoming: // same read-out, input: `CCCC/C(CC)=N/Nc1nc(-c2ccc(OC)cc2)cs1`
Outgoing: > 256 µg/mL

Incoming: // same read-out, input: `CCCCC/C(C)=N/Nc1nc(-c2ccc(OC)cc2OC)cs1`
Outgoing: > 256 µg/mL

Incoming: // same read-out, input: `COc1ccc(-c2csc(NN=C(C)C)n2)cc1`
Outgoing: > 256 µg/mL

Incoming: // same read-out, input: `CC(C)=NNc1nc(-c2ccc(Cl)cc2Cl)cs1`
Outgoing: > 256 µg/mL

Incoming: // same read-out, input: `CCCCCC/C(C)=N/Nc1nc(-c2ccc(OC)cc2)cs1`
Outgoing: > 256 µg/mL

Incoming: // same read-out, input: `COc1ccc(-c2csc(N/N=C(\C)C3CCCCC3)n2)c(OC)c1`
Outgoing: > 256 µg/mL

Incoming: // same read-out, input: `COc1ccc(-c2csc(N/N=C(\C)C3CCCCC3)n2)cc1`
Outgoing: > 256 µg/mL

Incoming: // same read-out, input: `CCC(CC)=NNc1nc(-c2ccc(OC)cc2)cs1`
Outgoing: > 256 µg/mL

Incoming: // same read-out, input: `CCCCCC/C(C)=N/Nc1nc(-c2ccc(Cl)cc2Cl)cs1`
Outgoing: > 256 µg/mL

Incoming: // same read-out, input: `COc1ccc(-c2csc(N/N=C(\C)CC(C)C)n2)c(OC)c1`
Outgoing: > 256 µg/mL

Incoming: // same read-out, input: `CCC/C(C)=N/Nc1nc(-c2ccc(C)cc2)cs1`
Outgoing: > 256 µg/mL

Incoming: // same read-out, input: `COc1ccc(-c2csc(N/N=C3/C=CC(C)(C)CC3)n2)cc1`
Outgoing: > 256 µg/mL

Incoming: // same read-out, input: `C=CCC/C(C)=N/Nc1nc(-c2ccc(OC)cc2)cs1`
Outgoing: > 256 µg/mL

Incoming: // same read-out, input: `CC/C(C)=N/Nc1nc(-c2ccc(OC)cc2)cs1`
Outgoing: > 256 µg/mL

Incoming: // same read-out, input: `CC/C(C)=N/Nc1nc(-c2ccc(Cl)cc2Cl)cs1`
Outgoing: > 256 µg/mL

Incoming: // same read-out, input: `C/C(CC(C)C)=N\Nc1nc(-c2ccc(Cl)cc2Cl)cs1`
Outgoing: > 256 µg/mL

Incoming: // same read-out, input: `CCC(CC)=NNc1nc(-c2ccc(C)cc2)cs1`
Outgoing: > 256 µg/mL

Incoming: // same read-out, input: `Clc1ccc(-c2csc(NN=C3CCCCCCC3)n2)c(Cl)c1`
Outgoing: > 256 µg/mL

Incoming: // same read-out, input: `CCCCCC/C(C)=N/Nc1nc(-c2ccc(OC)cc2OC)cs1`
Outgoing: > 256 µg/mL

----------
- Test: Cytotoxicity against human Hep2 cells assessed as cell survival fraction at 0.5 ug/ml after 24 hrs by trypan blue exclusion assay (reference value: 97 to 98%)
- Format: cell-based
- Measurement parameters: HEp-2 cells, read-out: Survival
API: label(entry) gives t if the entry's viability at 24 h, 0.5 ug/ml is strictly smaller than 90%; on equality or larger values it gives f.

Incoming: Find out if reported viability at 24 h, 0.5 ug/ml for `CC/C(C)=N/Nc1nc(-c2ccc(OC)cc2)cs1` is less than 90%
Outgoing: t

Incoming: // same read-out, input: `C/C(=N\Nc1nc(-c2ccc(Cl)cc2Cl)cs1)C1CCCCC1`
Outgoing: f

Incoming: // same read-out, input: `CCCC/C(CC)=N/Nc1nc(-c2ccc(OC)cc2)cs1`
Outgoing: t

Incoming: // same read-out, input: `C=CCC/C(C)=N/Nc1nc(-c2ccc(OC)cc2)cs1`
Outgoing: t

Incoming: // same read-out, input: `CCC(CC)=NNc1nc(-c2ccc(C)cc2)cs1`
Outgoing: t

Incoming: // same read-out, input: `Clc1ccccc1C(c1ccccc1)(c1ccccc1)n1ccnc1`
Outgoing: f

----------
For each entry below, report its viability at 24 h, 100 ug/ml value.
- Test: Cytotoxicity against human Hep2 cells assessed as cell survival fraction at 100 ug/ml after 24 hrs by trypan blue exclusion assay (reference value: 97 to 98%)
- Format: cell-based
- Measurement parameters: HEp-2 cells, read-out: Survival
Number in %, nothing else.

Incoming: Which viability at 24 h, 100 ug/ml value is on record for `CCCC/C(CC)=N/Nc1nc(-c2ccc(OC)cc2)cs1` ?
Outgoing: 0

Incoming: // same read-out, input: `CCC/C(C)=N/Nc1nc(-c2ccc(C)cc2)cs1`
Outgoing: 62

Incoming: // same read-out, input: `Clc1ccc(-c2csc(NN=C3CCCCCCC3)n2)c(Cl)c1`
Outgoing: 0

----------
- Test: Cytotoxicity against human Hep2 cells assessed as cell survival fraction at 0.05 ug/ml after 24 hrs by trypan blue exclusion assay (reference value: 97 to 98%)
- Type: cell-based
- Measurement parameters: HEp-2 cells, read-out: Survival
Observed property: viability at 24 h, 0.05 ug/ml (%)
Number in %, nothing else.

Incoming: Which viability at 24 h, 0.05 ug/ml value is on record for `CCC/C(C)=N/Nc1nc(-c2ccc(OC)cc2)cs1` ?
Outgoing: 90

Incoming: // same read-out, input: `C=CCC/C(C)=N/Nc1nc(-c2ccc(OC)cc2)cs1`
Outgoing: 91.2

Incoming: // same read-out, input: `CCC(CC)=NNc1nc(-c2ccc(C)cc2)cs1`
Outgoing: 92.2

Incoming: // same read-out, input: `CCCC/C(CC)=N/Nc1nc(-c2ccc(OC)cc2)cs1`
Outgoing: 90.2

----------
- Test: Cytotoxicity against human Hep2 cells assessed as cell survival fraction at 0.005 ug/ml after 24 hrs by trypan blue exclusion assay (reference value: 97 to 98%)
- Type: cell-based
- Measurement parameters: HEp-2 cells, read-out: Survival
For each entry below, report its viability at 24 h, 0.005 ug/ml value.
Hi, when you answer, please include the unit after the number. Thanks!

Incoming: Which viability at 24 h, 0.005 ug/ml value is on record for `Clc1ccc(-c2csc(NN=C3CCCCCCC3)n2)c(Cl)c1` ?
Outgoing: 94%

Incoming: // same read-out, input: `CCC(CC)=NNc1nc(-c2ccc(C)cc2)cs1`
Outgoing: 94.6%

Incoming: // same read-out, input: `C=CCC/C(C)=N/Nc1nc(-c2ccc(OC)cc2)cs1`
Outgoing: 94%

----------
- Test: Cytotoxicity against human Hep2 cells assessed as cell survival fraction at 0.5 ug/ml after 24 hrs by trypan blue exclusion assay (reference value: 97 to 98%)
- Assay type: cell-based
- Measurement parameters: HEp-2 cells, read-out: Survival
Observed property: viability at 24 h, 0.5 ug/ml

Incoming: Which viability at 24 h, 0.5 ug/ml value is on record for `CCC/C(C)=N/Nc1nc(-c2ccc(OC)cc2)cs1` ?
Outgoing: 88%

Incoming: // same read-out, input: `CCC/C(C)=N/Nc1nc(-c2ccc(C)cc2)cs1`
Outgoing: 91%

Incoming: // same read-out, input: `Clc1ccc(-c2csc(NN=C3CCCCCCC3)n2)c(Cl)c1`
Outgoing: 92.4%
